Where do these numbers come from? They come from PubChem BioAssay (NCATS).

- System: P93_24
- method.description: qHTS profiling for inhibitors of Plasmodium falciparum proliferation (AID 504749); further: nearly all actives have a fitted effect of over 60% in size
- measurement.conditions: P. falciparum in erythrocytes, SYBR Green DNA, 72 h; series mostly up to 28.7 µM
- Protocol: NIH National Institute of Allergy and Infectious Diseases [NIAID] NIH Chemical Genomics Center [NCGC] […] Because mature erythrocytes lack DNA, only Plasmodium-derived DNA is detected. NCGC Assay Protocol Summary: The SYBR Green viability assay was adapted from a method described previously (Plouffe et al., 2008). […] The following morning, fluorescence intensity at 485(14) nm excitation and 535(25) nm emission wavelengths was measured on an EnVision (Perkin Elmer) plate reader. […]
Results filed as inconclusive are left out. Active and inactive are the calls of the source. The call rests on the fitted dose curve; in most records, active means well fitted inhibition curve with a large enough effect; inconclusive means small, poorly fitted or top-dose-only effect; inactive means flat fitted curve, though single readings scatter.
Parameter call: string, one of TRUE = active, FALSE = inactive

compound="C[N+]1(CC2COC(c3ccccc3)(C3CCCCC3)O2)CCCCC1 (stereo not given)" target_or_test_system=P93_24 answer_label=TRUE

Request: State the result this test recorded for Oc1c(Cl)cc(Cl)c(Cl)c1Cc1c(O)c(Cl)cc(Cl)c1Cl .
Response: TRUE

Request: State the result this test recorded for O=C(O)c1ccc(S(=O)(=O)N(Cl)Cl)cc1 .
Response: FALSE

Request: State the result this test recorded for CCc1oc2ccccc2c1C(=O)c1cc(Br)c(O)c(Br)c1 .
Response: FALSE

Request: State the result this test recorded for CC(=O)O[C@]1(C(C)=O)CC[C@H]2[C@@H]3C=C(Cl)C4=CC(=O)CC[C@]4(C)[C@H]3CC[C@@]21C .
Response: TRUE

Request: State the result this test recorded for Cc1ccc(O)c([C@H](CCN(C(C)C)C(C)C)c2ccccc2)c1 .
Response: TRUE

Request: State the result this test recorded for O=C1C(CCS(=O)c2ccccc2)C(=O)N(c2ccccc2)N1c1ccccc1 (stereo not given) .
Response: FALSE

Request: State the result this test recorded for COc1ccc(/C=N/NC(=O)c2ccncc2)cc1OC .
Response: FALSE

Request: State the result this test recorded for CC(C)CCCC(C)N (stereo not given) .
Response: FALSE

Request: State the result this test recorded for CCOc1cc(OCC)c(C(=O)CCC(=O)O)cc1OCC .
Response: FALSE

###

- method.description: qHTS of pediatric cancer cell lines to identify multiple opportunities for drug repurposing: Confirmatory screen for NB1643 cells (AID 1347109); further: nearly all actives have a fitted effect of over 45% in size
- measurement.conditions: NB1643 neuroblastoma cell viability; series mostly up to 45.9 µM
Inconclusive results are not listed. Activity calls are given as the source filed them. Calls follow the shape of the dose curve; as a rule, active = well fitted cell-killing curve with a large enough effect; inconclusive = small, poorly fitted or top-dose-only effect, or effect the other way; inactive = no such curve, though single readings can be large or run the other way.
Parameter call: string, one of active, inactive

Request: State the result this test recorded for COc1ccc(C(=O)c2ccccc2)c(O)c1 .
Response: inactive

Request: State the result this test recorded for Nc1nc(Cl)nc2c1ncn2[C@@H]1O[C@H](CO)[C@@H](O)[C@@H]1F .
Response: active

Request: State the result this test recorded for C[C@H]1O[C@@H](O[C@H]2CC[C@@]3(C)[C@H](CC[C@@H]4[C@@H]3C[C@@H](O)[C@]3(C)[C@@H](C5=CC(=O)OC5)CC[C@]43O)C2)C[C@H](O)[C@@H]1O[C@H]1C[C@H](O)[C@H](O[C@H]2C[C@H](O)[C@H](O[C@@H]3O[C@H](CO)[C@@H](O)[C@H](O)[C@H]3O)[C@@H](C)O2)[C@@H](C)O1 .
Response: active

Request: State the result this test recorded for NC(N)=NN=C(/C=C/c1ccc([N+](=O)[O-])o1)/C=C/c1ccc([N+](=O)[O-])o1 .
Response: active

Request: State the result this test recorded for CCN1/C(=C/C=C/c2sc3ccccc3[n+]2CC)Sc2ccccc21 .
Response: active

Request: State the result this test recorded for C[C@@]12C(=O)OC(=O)[C@]1(C)C1CCC2O1 .
Response: active

###

- Tested on: CP266
- method.description: qHTS profiling for inhibitors of Plasmodium falciparum proliferation (AID 504749); further: nearly all actives have a fitted effect of over 60% in size
- measurement.conditions: P. falciparum in erythrocytes, SYBR Green DNA, 72 h; series mostly up to 28.7 µM
- Procedure: NIH National Institute of Allergy and Infectious Diseases [NIAID] NIH Chemical Genomics Center [NCGC] […] Because mature erythrocytes lack DNA, only Plasmodium-derived DNA is detected. NCGC Assay Protocol Summary: The SYBR Green viability assay was adapted from a method described previously (Plouffe et al., 2008). […] The following morning, fluorescence intensity at 485(14) nm excitation and 535(25) nm emission wavelengths was measured on an EnVision (Perkin Elmer) plate reader. […]
Records with an inconclusive call do not appear. Active and inactive are the calls of the source. Calls follow the shape of the dose curve; as a rule, active = well fitted inhibition curve with a large enough effect; inconclusive = small, poorly fitted or top-dose-only effect; inactive = flat fitted curve, though single readings scatter.
Parameter call: string, one of active, inactive

Take a look at these entries with their results.
compound=Oc1ccc(Cl)cc1Cc1cc(Cl)ccc1O answer_label=inactive
compound=CC(=O)OCC(=O)[C@H]1CC[C@H]2[C@@H]3CCC4=CC(=O)CC[C@]4(C)[C@H]3CC[C@]12C answer_label=inactive
compound=Cc1c[nH]c2ccccc12 answer_label=inactive
compound=C#C[C@]1(O)CC[C@H]2[C@@H]3CCC4=CC(=O)CC[C@@H]4[C@H]3CC[C@@]21CC answer_label=inactive
compound=COc1cc(C(=O)N2CCCCCCC2)cc(OC)c1OC answer_label=inactive

Request: State the result this test recorded for O=C(NC1CCN(CCc2c[nH]c3ccccc23)CC1)c1ccccc1 .
Response: inactive

Request: State the result this test recorded for Nc1ccc(S(=O)(=O)NCc2ccccc2)cc1 .
Response: inactive

Request: State the result this test recorded for Cc1c(-c2ccccc2)oc2c(C(=O)OCCN3CCCCC3)cccc2c1=O .
Response: inactive

Request: State the result this test recorded for CC(C)NCC(O)c1ccc2ccccc2c1 (centres undefined) .
Response: inactive

Request: State the result this test recorded for Cc1cc(CC(=O)O)c(C)n1-c1ccc(Cl)cc1 .
Response: inactive

Request: State the result this test recorded for CC(C)(C)NC[C@H](O)COc1nsnc1N1CCOCC1 .
Response: inactive

Request: State the result this test recorded for O=C1C(O)=C(O)C(=O)C(O)=C1O .
Response: inactive

Request: State the result this test recorded for CC(=O)Nc1ccc(CC(=O)O)cc1 .
Response: inactive

Request: State the result this test recorded for CCCCNc1ccc(C(=O)OCCOCCOCCOCCOCCOCCOCCOCCOCCOC)cc1 .
Response: inactive

Request: State the result this test recorded for CCCCCCCCCCCCOCCOCCOCCOCCOCCOCCOCCOCCOCCO .
Response: inactive

Request: State the result this test recorded for COc1ccc(C(=O)c2ccccc2)c(O)c1 .
Response: inactive

Request: State the result this test recorded for CC(=O)N[C@@H](CCC(=O)O)C(=O)O .
Response: inactive

Request: State the result this test recorded for CCOC(=O)c1c(N)sc2c1CCN(Cc1ccccc1)C2 .
Response: active

Request: State the result this test recorded for C[C@@H](O)[C@H]1C(=O)N2C(C(=O)O)=C(S[C@@H]3CN[C@H](CNS(N)(=O)=O)C3)[C@H](C)[C@H]12 .
Response: inactive

Request: State the result this test recorded for CCN(CC)CCNc1ccc(CO)c2sc3ccccc3c(=O)c12 .
Response: active

Request: State the result this test recorded for c1ccc(-c2nc[nH]c2-c2ccccc2)cc1 .
Response: inactive

Request: State the result this test recorded for C#C[C@]1(OC(C)=O)CC[C@H]2[C@@H]3CCC4=C/C(=N/O)CC[C@@H]4[C@H]3CC[C@@]21CC .
Response: inactive

Request: State the result this test recorded for CCc1oc2ccccc2c1C(=O)c1cc(I)c(O)c(I)c1 .
Response: inactive

Request: State the result this test recorded for CCOc1cc(OCC)c(C(=O)CCC(=O)O)cc1OCC .
Response: inactive

###

- Test system: astro
- method.description: Drug repurposing screens with cells derived from glioblastoma tumor samples (AID 1345199); further: nearly all actives have a fitted effect of over 40% in size
- measurement.conditions: viability, ATP luminescence, 48 h; series mostly up to 45.9 µM
Inconclusive results are not listed. Active and inactive are the calls of the source. Calls follow the shape of the dose curve; as a rule, active = well fitted inhibition curve with a large enough effect; inconclusive = small, poorly fitted or top-dose-only effect; inactive = flat fitted curve, though single readings scatter.
Parameter call: string, one of active, inactive

Take a look at these entries with their results.
compound="CCN[C@@H]1C[C@H](N)[C@@H](OC2OC(CN)=CCC2N)[C@H](O)[C@H]1O[C@H]1OC[C@](C)(O)[C@H](NC)[C@H]1O (some centres undefined)" answer_label=inactive
compound=CCCN(CCc1cccs1)[C@H]1CCc2c(O)cccc2C1 answer_label=inactive
compound=O[C@@H](c1cc(C(F)(F)F)nc2c(C(F)(F)F)cccc12)[C@H]1CCCCN1 answer_label=active

Request: State the result this test recorded for CCOC(=O)[C@H](CCc1ccccc1)N[C@@H](C)C(=O)N1[C@H](C(=O)O)C[C@H]2CCCC[C@@H]21 .
Response: inactive

Request: State the result this test recorded for CC(=O)Nc1ccc(OC(=O)c2ccccc2OC(C)=O)cc1 .
Response: inactive

Request: State the result this test recorded for CCNC(=O)NCc1cccc(Cl)c1 .
Response: inactive

Request: State the result this test recorded for Cc1cc(CC(=O)O)c(C)n1-c1ccc(Cl)cc1 .
Response: inactive

Request: State the result this test recorded for COc1ccc(C(Cl)=C(c2ccc(OC)cc2)c2ccc(OC)cc2)cc1 .
Response: inactive

Request: State the result this test recorded for CCCc1ncc(C[n+]2ccccc2C)c(N)n1 .
Response: inactive
